# Tested on: Malme-3M
# Assay Summary: NCI tumour cell line growth inhibition, 48 h
Active and inactive are the calls of the source. Cut-off read from the data, not from the text of the source: active = GI50 up to about 1.1 µM and inactive = higher.
Could you please pick one outcome from this set? active, inactive

Dear colleague, could you share the recorded outcome for NN1C(=O)C(CCO)S/C1=N/N=C1/SC(CCO)C(=O)N1N (stereo not given) when you have a moment? inactive

Dear colleague, could you share the recorded outcome for CCOC(=O)C1C/C(C)=C(/C)SCCCS1 (stereo not given) when you have a moment? inactive

Dear colleague, could you share the recorded outcome for c1ccc(C(c2ccccc2)[P+](c2ccccc2)(c2ccccc2)c2ccccc2)cc1 when you have a moment? active

Dear colleague, could you share the recorded outcome for O=c1oc2c(ccc3ccccc32)cc1C1=CSC2=NCCN12 when you have a moment? inactive

Dear colleague, could you share the recorded outcome for O=[N+]([O-])c1cccc(-c2ncc3c(n2)-c2ccccc2C3)c1 when you have a moment? inactive

Dear colleague, could you share the recorded outcome for O=C1NN(c2ccccc2)C(=O)C2C3c4ccccc4C(c4ccccc43)C12 (stereo not given) when you have a moment? inactive

Dear colleague, could you share the recorded outcome for CC(C)NC(=O)OCc1c(COC(=O)NC(C)C)c(-c2ccc[n+](COC(=O)Cc3ccccc3)c2)n2c1CCC2 when you have a moment? inactive
